- Tested on: Proteus vulgaris HX-19
- Protocol Notes: Antibacterial activity, agar-dilution MIC, organism No. 21
- Assay type: cell-based
- Assay Conditions: Proteus vulgaris, HX19, read-out: Minimum Inhibitory Concentration
// values below are reported MIC

Compound: [C-]#[N+]C12CC3(/C=C/C(=O)Nc4ccc(O)cc4)OC3C1O2 (centres unmarked)
System Tested: Proteus vulgaris HX-19
Unit Of Measurement: µg/mL
Qualifying Sign: =
MIC: 1.56
--
Compound: [C-]#[N+]C12CC3(/C=C/C(=O)Nc4ccncc4)OC3C1O2 (centres unmarked)
System Tested: Proteus vulgaris HX-19
Unit Of Measurement: µg/mL
Qualifying Sign: =
MIC: 6.25
--
Compound: [C-]#[N+]C12CC3(/C=C/C(=O)Nc4ccc(OC)cc4)OC3C1O2 (centres unmarked)
System Tested: Proteus vulgaris HX-19
Unit Of Measurement: µg/mL
Qualifying Sign: <
MIC: 0.05
--
Compound: [C-]#[N+]C12CC3(/C=C/C(=O)Nc4nc[nH]n4)OC3C1O2 (centres unmarked)
System Tested: Proteus vulgaris HX-19
Unit Of Measurement: µg/mL
Qualifying Sign: =
MIC: 50
--
Compound: [C-]#[N+]C12CC3(/C=C/C(=O)NCCO)OC3C1O2 (centres unmarked)
System Tested: Proteus vulgaris HX-19
Unit Of Measurement: µg/mL
Qualifying Sign: =
MIC: 6.25

---

- Tested on: Streptococcus pyogenes IFO 3340
- Protocol Notes: Antibacterial activity, agar-dilution MIC, organism No. 26
- Assay type: cell-based
- Assay Conditions: Streptococcus pyogenes, IFO3340, read-out: Minimum Inhibitory Concentration

Compound: [C-]#[N+]C12CC3(/C=C/C(=O)Nc4nc[nH]n4)OC3C1O2 (stereo not shown)
Unit Of Measurement: µg/mL
MIC: 100
//
Compound: [C-]#[N+]C12CC3(/C=C/C(=O)Nc4ccc(OC)cc4)OC3C1O2 (stereo not shown)
Unit Of Measurement: µg/mL
MIC: 0.39
//
Compound: [C-]#[N+]C12CC3(/C=C/C(=O)Nc4ccc(O)cc4)OC3C1O2 (stereo not shown)
Unit Of Measurement: µg/mL
MIC: 3.13
//
Compound: [C-]#[N+]C12CC3(/C=C/C(=O)NCCO)OC3C1O2 (stereo not shown)
Unit Of Measurement: µg/mL
MIC: 12.5

---

Form field: MIC (one value per entry).
- System: Proteus vulgaris HX-19
- Protocol Notes: Antibacterial activity, agar-dilution MIC, organism No. 21
- Type: cell-based
- Assay Conditions: Proteus vulgaris, HX19; Organism No. 21, bouillon-agar; read-out: Minimum Inhibitory Concentration
Measurement Name: MIC

Compound: [C-]#[N+]C12CC3(/C=C/C(=O)Nc4ccc5c(c4)OCO5)OC3C1O2 (stereo not shown)
System Tested: Proteus vulgaris HX-19
Measured Value: 0.05 µg/mL
--
Compound: [C-]#[N+]C12CC3(/C=C/C(=O)Nc4ccc(C(=O)O)cc4)OC3C1O2 (stereo not shown)
System Tested: Proteus vulgaris HX-19
Measured Value: 12.5 µg/mL
--
Compound: [C-]#[N+]C12CC3(/C=C/C(=O)Nc4nnc(C)s4)OC3C1O2 (stereo not shown)
System Tested: Proteus vulgaris HX-19
Measured Value: 6.25 µg/mL
--
Compound: [C-]#[N+]C12CC3(/C=C/C(=O)OCC(=O)c4ccc(C)cc4)OC3C1O2 (stereo not shown)
System Tested: Proteus vulgaris HX-19
Measured Value: 0.2 µg/mL
